Give measured selective drug sensitivity score for each item. Keep answers brief.
- Test system: RCH-ACV
- test_method_notes: selective drug sensitivity score (sDSS, relative to normal bone marrow) (sDSS (score)); higher = more potent and effective on the cell line relative to normal bone marrow cells;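 also: ALL cell lines in 384-well plates, five doses spanning 10,000-fold, each plate scaled between vehicle and 100 µmol/L benzalkonium chloride controls, sDSS an adapted area-under-curve metric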
- assay_conditions: 72 h
Give the value as a plain number.

In: Which measured selective drug sensitivity score value corresponds to Oc1ccc2c(c1)CC[C@H](c1ccccc1)[C@@H]2c1ccc(OCCN2CCCC2)cc1 [Lasofoxifene] (top concentration 1000 nM) ?
Out: -1.28

In: Input Cc1ccc(C(=O)Nc2ccc(Oc3cc4cnn(C)c4cc3-c3cn[nH]c3)c(F)c2)c(=O)n1-c1ccc(F)cc1 [Merestinib] (top concentration 1000 nM)
Out: 1.08

In: Same for CNC(=O)c1cc(Oc2ccc(NC(=O)Nc3ccc(Cl)c(C(F)(F)F)c3)cc2)ccn1 [Sorafenib] (top concentration 1000 nM)
Out: 1.4

====

- Test system: MHH-CALL-2
- test_method_notes: selective drug sensitivity score (sDSS, relative to normal bone marrow) (sDSS (score)); higher = more potent and effective on the cell line relative to normal bone marrow cells
- assay_conditions: 72 h
measurement_type: selective drug sensitivity score
I'd appreciate a reply containing only the number, no unit.

In: Need selective drug sensitivity score, item CO[C@H]1C[C@@H]2CC[C@@H](C)[C@@](O)(O2)C(=O)C(=O)N2CCCC[C@H]2C(=O)O[C@H]([C@H](C)C[C@@H]2CC[C@@H](OC(=O)C(C)(CO)CO)[C@H](OC)C2)CC(=O)[C@H](C)/C=C(\C)[C@@H](O)[C@@H](OC)C(=O)[C@H](C)C[C@H](C)/C=C/C=C/C=C/1C [Temsirolimus] (top concentration 100 nM)
Out: -0.34

In: Ok, now Cc1ncc(-c2ccnc(Nc3ccc(S(C)(=O)=O)cc3)n2)n1C(C)C [AZD-5438] (top concentration 10000 nM)
Out: -1.06

In: Do the same for Cc1cc(-c2nc(-c3ccc(OC(F)(F)F)cc3)no2)nn1Cc1ccnc(N2CCN(C3CC3)CC2)c1 [BAY_87-2243] (top concentration 1000 nM) please
Out: 8.64

In: Entry to check: CC(C)Oc1ccc(C(=O)N[C@H](CNC(=O)CN(C)C)Cc2ccc(-c3cn4cccc([C@H](C)O)c4n3)cc2)cc1Cl (top concentration 10000 nM)
Out: 8.58

In: Record: CN1CCC(COc2cnc(-c3cccc(Cn4nc(-c5cccc(C#N)c5)ccc4=O)c3)nc2)CC1 [Tepotinib] (top concentration 1000 nM)
Out: -0.08

====

- Test system: COG-LL-402h
- test_method_notes: selective drug sensitivity score (sDSS, relative to normal bone marrow) (sDSS (score)); higher = more potent and effective on the cell line relative to normal bone marrow cells
- assay_conditions: 72 h
Recorded selective drug sensitivity score determines the group label, using lower bin: < -0.2; middle bin: ≥ -0.2 and < 0.1; upper bin: ≥ 0.1

In: Which bin, given its selective drug sensitivity score, does C[C@H]1CNCCCN1S(=O)(=O)c1cccc2cncc(F)c12 [Ripasudil] (top concentration 10000 nM) occupy?
Out: lower bin

In: What about this molecule? CCC(C)(C)C(=O)O[C@H]1C[C@@H](C)C=C2C=C[C@H](C)[C@H](CC[C@@H]3C[C@@H](O)CC(=O)O3)[C@H]21 [Simvastatin] (top concentration 10000 nM)
Out: middle bin

In: Thanks! And C/C=C1\NC(=O)[C@H]2CSSCC/C=C/[C@H](CC(=O)N[C@H](C(C)C)C(=O)N2)OC(=O)[C@H](C(C)C)NC1=O [Romidepsin] (top concentration 1000 nM) ?
Out: upper bin

In: Same question, CC(C)NC(=O)COc1cccc(-c2nc(Nc3ccc4[nH]ncc4c3)c3ccccc3n2)c1 [KD025] (top concentration 5000 nM) this time
Out: lower bin

In: // same read-out, input: CCN1C(=O)CNc2ncc(-c3ccc(-c4nc[nH]n4)nc3C)nc21 [CC-115] (top concentration 10000 nM)
Out: upper bin

In: Now try CCN(CC)C(=S)SSC(=S)N(CC)CC [Disulfiram(+CuCl2)] (top concentration 50000 nM) .
Out: lower bin

In: Repeat with COc1cc(C)[nH]c(=O)c1CNC(=O)c1c(C)n([C@H](C)C2CCOCC2)c2ccccc12 [CPI-360] (top concentration 10000 nM)
Out: middle bin

In: Check Cc1cccc(-c2nn3c(c2-c2ccnc4ccc(C(N)=O)cc24)CCC3)n1 [Galunisertib] (top concentration 1000 nM) too.
Out: middle bin

In: Proceed to N#Cc1ccc(COC[C@H]2O[C@@H](n3c(NCc4ccc(Cl)c(Cl)c4)nc4c(N)ncnc43)[C@H](O)[C@@H]2O)cc1 (top concentration 10000 nM)
Out: upper bin

In: Now try COc1cccc(-c2ccc(NC(=O)C3=C(C(=O)O)CCC3)c(F)c2)c1 [Vidofludimus] (top concentration 10000 nM) .
Out: middle bin

In: Ok, now CS(=O)(=O)c1ccc(C(=O)Nc2ccc(Cl)c(-c3ccccn3)c2)c(Cl)c1 [Vismodegib] (top concentration 10000 nM)
Out: lower bin
